measured-target: REFACTO® (recombinant factor VIII-like polypeptide consisting of amino acids 1-743 and 1638 through 2332 of human factor VIII) (human) (UniProt P00451)
Sequence (P00451 20-762, chain 1 of 2): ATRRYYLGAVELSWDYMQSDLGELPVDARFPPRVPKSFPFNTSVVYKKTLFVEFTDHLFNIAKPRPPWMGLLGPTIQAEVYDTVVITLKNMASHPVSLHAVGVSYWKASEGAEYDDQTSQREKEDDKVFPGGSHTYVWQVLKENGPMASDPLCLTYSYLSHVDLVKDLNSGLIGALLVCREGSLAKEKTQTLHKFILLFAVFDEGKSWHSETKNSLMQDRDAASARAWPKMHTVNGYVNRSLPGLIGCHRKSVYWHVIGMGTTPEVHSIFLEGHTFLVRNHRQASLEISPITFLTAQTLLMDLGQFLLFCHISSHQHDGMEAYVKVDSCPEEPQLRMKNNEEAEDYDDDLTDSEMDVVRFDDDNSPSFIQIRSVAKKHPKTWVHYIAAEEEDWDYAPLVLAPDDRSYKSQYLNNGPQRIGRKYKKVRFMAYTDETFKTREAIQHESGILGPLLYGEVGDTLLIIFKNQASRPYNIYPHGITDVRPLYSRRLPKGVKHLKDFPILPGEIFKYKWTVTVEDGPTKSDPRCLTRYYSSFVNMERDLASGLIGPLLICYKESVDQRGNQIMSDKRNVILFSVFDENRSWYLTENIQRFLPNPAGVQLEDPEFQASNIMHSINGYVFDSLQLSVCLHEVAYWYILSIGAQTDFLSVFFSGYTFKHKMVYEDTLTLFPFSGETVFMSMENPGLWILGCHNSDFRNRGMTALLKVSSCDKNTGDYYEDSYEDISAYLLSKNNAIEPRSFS
Sequence (P00451 1657-2351, chain 2 of 2): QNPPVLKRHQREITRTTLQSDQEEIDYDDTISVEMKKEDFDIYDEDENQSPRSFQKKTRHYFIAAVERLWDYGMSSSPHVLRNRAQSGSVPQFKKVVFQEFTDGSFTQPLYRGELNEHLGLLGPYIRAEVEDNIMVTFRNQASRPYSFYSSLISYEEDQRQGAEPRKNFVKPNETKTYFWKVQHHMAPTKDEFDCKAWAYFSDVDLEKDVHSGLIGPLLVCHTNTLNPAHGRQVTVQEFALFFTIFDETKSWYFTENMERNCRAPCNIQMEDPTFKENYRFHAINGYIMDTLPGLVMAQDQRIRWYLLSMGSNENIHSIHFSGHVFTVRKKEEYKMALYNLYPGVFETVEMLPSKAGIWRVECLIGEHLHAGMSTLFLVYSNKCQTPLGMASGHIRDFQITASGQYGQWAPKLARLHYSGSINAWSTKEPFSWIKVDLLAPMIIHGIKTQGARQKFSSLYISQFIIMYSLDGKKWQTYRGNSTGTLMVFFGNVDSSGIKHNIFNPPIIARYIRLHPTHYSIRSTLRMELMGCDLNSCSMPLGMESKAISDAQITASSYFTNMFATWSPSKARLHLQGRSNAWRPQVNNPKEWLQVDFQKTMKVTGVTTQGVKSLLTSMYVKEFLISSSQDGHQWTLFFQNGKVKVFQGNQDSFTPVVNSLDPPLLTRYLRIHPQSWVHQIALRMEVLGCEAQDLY
measurement-description: affinity column, peptide on Toyopearl Formyl 650-M; target in fraction by RP-HPLC
Positions of bridges follow the written chain, without caps; N, C: chain ends. No end group written: not given here. *: point of attachment. NHNH2 = NN*
Overview of reported % recovery, Elution A across a group of binders:
Write it as a number; the unit % goes unstated.

Guide cases for % recovery, Elution A, answers given:
| binder | val |
| --- | --- |
| AEGTGDHLCGAWFRPCDADPGPEGGGS-NHNH2 (disulfide 9-16 (inferred)) [Affinity ligand CS-454] | 45.1 |
| AEGTGDFCWVFAFDHCHDPGPEGGGS-NHNH2 (disulfide 8-16 (inferred)) [Affinity ligand CS-458] | 54.3 |
| AEGTGDFGCSWLFPCPFDPGPEGGGS-NHNH2 (disulfide 9-15 (inferred)) [Affinity ligand CS-456] | 44.8 |
| AEGTGDFCWVFPFQHCADPGPEGGGS-NHNH2 (disulfide 8-16 (inferred)) [Affinity ligand CS-459] | 42.1 |
| AEGTGDHPCGSWLRPCLHDPGPEGGGS-NHNH2 (disulfide 9-16 (inferred)) [Affinity ligand CS-453] | 43.2 |

query: What does the data say about its % recovery, Elution A? Entry: AEGTGDFHCIGVWFCLHDPGPEGGGS-NHNH2 (disulfide 9-15 (inferred)) [Affinity ligand CS-455]
result: 1.4

query: What does the data say about its % recovery, Elution A? Entry: AEGTGDFCWVFPFHHCFDPGPEGGGS-NHNH2 (disulfide 8-16 (inferred)) [Affinity ligand CS-460]
result: 28.8
